Origin of measurements: patent US10111875B2

biological target: Recombinant human JAK1 catalytic domain (Homo sapiens (Human)); assay: JAK1 kinase assay (Z'-LYTE Tyr 6 Peptide); format: biochemical; settings: read-out: inhibition percentage (IR %)
Sequence (P23458 875-1153): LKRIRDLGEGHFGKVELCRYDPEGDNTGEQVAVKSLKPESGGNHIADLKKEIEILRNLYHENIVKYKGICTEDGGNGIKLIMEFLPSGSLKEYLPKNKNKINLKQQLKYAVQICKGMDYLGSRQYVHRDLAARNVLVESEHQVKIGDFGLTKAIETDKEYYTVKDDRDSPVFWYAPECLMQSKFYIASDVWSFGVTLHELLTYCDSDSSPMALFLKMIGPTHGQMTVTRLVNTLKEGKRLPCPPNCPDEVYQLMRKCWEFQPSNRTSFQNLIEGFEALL
Endpoint label: inhibition at 0.3 µM

Item: CN(c1ccc(C(=O)O)cn1)[C@@H]1CCN(c2ncnc3[nH]ccc23)C1 | inhibition at 0.3 µM: 50 to 100%

Reported inhibition at 0.3 µM for CCS(=O)(=O)Nc1ccc(N(C)[C@@H]2CCN(c3ncnc4[nH]ccc34)C2)nc1 was 50 to 100%

Record CN(c1cc(Cl)c(C#N)cc1F)[C@@H]1CCN(c2ncnc3[nH]ccc23)C1 , field inhibition at 0.3 µM: 20 to 50%

Entry CN(c1ncc(C#N)cn1)[C@@H]1CCN(c2ncnc3[nH]ccc23)C1 , inhibition at 0.3 µM reported as 20 to 50%
